All figures here come from ChEMBL document CHEMBL3885861.

Reported KIDNEY_L by item:
Organism: Rattus norvegicus
ASSAY_NOTES: Open TG-GATES - Regimen: Daily Repeat
Type: toxicity, organism-based, Sprague-Dawley
Set-up: regimen Daily Repeat, gender Male, age 6 weeks
STATED_CONDITIONS: in vivo, po, 0 mg/kg, […], tissue Kidney, route gavage, dose level Control, time 7 day
ASSAY_METRIC: KIDNEY_L

1) CN(C)C(=N)N=C(N)N: 1 g
2) OCCOCCN1CCN(C(c2ccccc2)c2ccc(Cl)cc2)CC1 (stereo unspecified) [HYDROXYZINE]: 1.1 g
3) CC(C)N(CCC(C(N)=O)(c1ccccc1)c1ccccn1)C(C)C (stereo unspecified) [DISOPYRAMIDE]: 1.1 g
4) CCC1(c2ccccc2)C(=O)NC(=O)NC1=O: 1 g
5) CCCCc1oc2ccccc2c1C(=O)c1cc(I)c(OCCN(CC)CC)c(I)c1: 1.1 g
6) ClC(Cl)(Cl)Cl [CARBON TETRACHLORIDE]: 1 g
7) CC[C@H]1[C@@H]2C[C@H]3[C@@H]4N(C)c5ccccc5[C@]45C[C@@H]([C@@H]2[C@H]5O)N3[C@@H]1O: 1 g
8) CC1=C(CC(=O)O)c2cc(F)ccc2/C1=C\c1ccc([S+](C)[O-])cc1 (stereo unspecified): 1.1 g
9) O=NN(CCCl)C(=O)NC1CCCCC1: 1.2 g
10) CCc1oc2ccccc2c1C(=O)c1cc(Br)c(O)c(Br)c1: 1.1 g
11) CN(C)CCC=C1c2ccccc2COc2ccccc21 [DOXEPIN]: 1.1 g
